assay: Subdermal murine toxicity model; settings: 1 hour after subcutaneous administration; comparator DJK-5
Where a SMILES comes first, the peptide text is derived from it. [ ]: non-standard residue; d: D form.
OUTCOME MEASURE: Clinical score

Q: // returns reported Clinical score for input CC[C@@H](C)[C@@H](NC(=O)[C@@H](C)NC(=O)[C@@H](CCCNC(=N)N)NC(=O)[C@@H](CC(C)C)NC(=O)[C@@H](CCC(N)=O)NC(=O)[C@H](NC(=O)[C@@H](CCCNC(=N)N)NC(=O)[C@H](NC(=O)[C@H](NC(=O)[C@@H](CCCNC(=N)N)NC(=O)[C@H](NC(=O)[C@H](N)CCCNC(=N)N)C(C)C)C(C)C)[C@H](C)CC)C(C)C)C(N)=O [AB115-D, rvrvirvqlrai] (H-[dR][dV][dR][dV][dI][dR][dV][dQ][dL][dR][dA][dI]-NH2)
Result: < 2

Source listed as patent US20260374818A1.
